Ref: ChEMBL document CHEMBL3507680

cytotoxicity at 70.5 h listing for selected compounds.
# Assay name: Human HepG2 cell viability assay in 384 well format
# Assay type: toxicity, cell-based
# Design: dose 125 nL, time 70.5 hour; concentration not given beside the values
# Condition label: HepG2 cells, read-out: Inhibition

Past entries and their recorded results:
[
  {
    "Compound": "Cn1cc(N2CCC3(CCN(Cc4nccs4)C3)C2=O)cn1 (centres undefined)",
    "Observable": "cytotoxicity at 70.5 h",
    "Data value": "-12.1%"
  },
  {
    "Compound": "CC(NCCn1c(=O)oc2ccccc21)c1ccccn1 (centres undefined)",
    "Observable": "cytotoxicity at 70.5 h",
    "Data value": "-5.54%"
  },
  {
    "Compound": "O=C(Cc1csc(-c2ccco2)n1)N1CCN(c2cnccn2)CC1",
    "Observable": "cytotoxicity at 70.5 h",
    "Data value": "1.22%"
  },
  {
    "Compound": "CCS(=O)(=O)N1CCc2ncnc(C)c2CC1",
    "Observable": "cytotoxicity at 70.5 h",
    "Data value": "-1.43%"
  }
]

Ask: Need cytotoxicity at 70.5 h, item CCCn1nc(-c2nc(COC)no2)ccc1=O
Reply: -6.41%

Ask: Need cytotoxicity at 70.5 h, item Cn1ccc(CN2CCC(NC(=O)NC3CCCCC3)CC2)cc1=O
Reply: -5.64%

Ask: Need cytotoxicity at 70.5 h, item Cc1ccc2c(CC(=O)N3C[C@@H](O)[C@H](N(C)C)C3)coc2c1
Reply: -5.65%

Ask: Need cytotoxicity at 70.5 h, item Cc1ccc(CNC(CCO)C2CCCCC2)nc1 (centres undefined)
Reply: -1.61%

Ask: Need cytotoxicity at 70.5 h, item Cc1ccc(CNCc2cccc3cn[nH]c23)c(OC2CCOC2)c1 (centres undefined)
Reply: 3.6%

Ask: Need cytotoxicity at 70.5 h, item Cn1cc(S(=O)(=O)Nc2ccc(Cl)cn2)cc1C(N)=O
Reply: -3.76%

Ask: Need cytotoxicity at 70.5 h, item O=C(CO)N1CCC(c2cncc(-c3cccc(Cl)c3)n2)CC1
Reply: -3.18%

Ask: Need cytotoxicity at 70.5 h, item Cc1ncccc1NC(=O)[C@@H]1C[C@@H]2CCN(Cc3cccs3)C[C@H]2O1
Reply: -12.3%

Ask: Need cytotoxicity at 70.5 h, item O=C(c1ccsc1)N1C[C@H]2CN(Cc3cccc(F)c3)C(=O)[C@H]2C1
Reply: -1.45%

Ask: Need cytotoxicity at 70.5 h, item O=C(CNc1ccc(F)cc1OCC(F)(F)F)NCc1ccco1
Reply: -10.6%

Ask: Need cytotoxicity at 70.5 h, item CN(Cc1ccccc1)c1ccc(C(F)(F)F)cn1
Reply: -3.92%

Ask: Need cytotoxicity at 70.5 h, item CCN(C)S(=O)(=O)NCC(C)(O)c1ccsc1 (centres undefined)
Reply: -0.398%

Ask: Need cytotoxicity at 70.5 h, item CCOCC1CN(Cc2ccoc2)Cc2ncn(CC3CC3)c21 (centres undefined)
Reply: 5.39%

Ask: Need cytotoxicity at 70.5 h, item COc1cccc(N2CCN(C(=O)COc3c(C)occc3=O)CC2)c1
Reply: 10%

Ask: Need cytotoxicity at 70.5 h, item CCC(NC1CCN(S(C)(=O)=O)CC1)c1cccs1 (centres undefined)
Reply: -15.6%

Ask: Need cytotoxicity at 70.5 h, item CCC(=O)N1CCC2(COCc3cnc(N4CCOCC4)nc32)C1 (centres undefined)
Reply: 1.55%

Ask: Need cytotoxicity at 70.5 h, item O=C(c1ccncc1)N1Cc2ccccc2OC2(CCOCC2)C1
Reply: -18.2%

Ask: Need cytotoxicity at 70.5 h, item CC(=O)Nc1nc2c(s1)C(C)(C)Nc1ccccc1S2
Reply: -2.23%

Ask: Need cytotoxicity at 70.5 h, item CCN1C(=O)C2(CCOCC2)c2cc(NC(=O)COC)ccc21
Reply: 14.9%

Ask: Need cytotoxicity at 70.5 h, item CCN(C)C1COC2(CCN(C(=O)c3ccc(Cl)cc3)CC2)C1 (centres undefined)
Reply: -9.04%

* * *

# Assay name: Human HepG2 cell viability assay in 384 well format
# Format: toxicity, cell-based
# Set-up: dose 125 nL, time 70.5 hour; concentration not given beside the values
# Condition label: HepG2 cells, read-out: Inhibition
Observable: cytotoxicity at 70.5 h (%)
Write it as a number; the unit % goes unstated.

Past entries and their recorded results:
[
  {
    "Compound": "CCOC(=O)C1CCN(C(=O)Cc2c(C)nc(C)[nH]c2=O)CC1",
    "cytotoxicity at 70.5 h, %": 12.3
  },
  {
    "Compound": "Fc1ccc(-c2nnc(CN3CCCC3Cn3cccn3)o2)cc1 (stereo unspecified)",
    "cytotoxicity at 70.5 h, %": -19.8
  },
  {
    "Compound": "CCC(C)NC(=O)c1nn(C)c(NC(=O)c2ccccc2OC)c1F (stereo unspecified)",
    "cytotoxicity at 70.5 h, %": -10.8
  }
]

Ask: Need cytotoxicity at 70.5 h, item c1csc(CN2C[C@@H]3OCCN(CC4CCCO4)[C@@H]3C2)c1 (stereo partly specified)
Reply: -7.54

Ask: Need cytotoxicity at 70.5 h, item Cc1nc(-c2ccc(F)cc2)nc2c1CCN(C(=O)CN(C)C)CC2
Reply: -1.65

Ask: Need cytotoxicity at 70.5 h, item CC(C)(C)c1cn2nc(N3CCCC(Cn4cncn4)C3)sc2n1 (stereo unspecified)
Reply: -9.57

Ask: Need cytotoxicity at 70.5 h, item COc1cccc(CN(Cc2ccco2)Cc2[nH]cnc2C)c1
Reply: 6.19

Ask: Need cytotoxicity at 70.5 h, item CCc1nc(C)c([C@H]2CN(C)C[C@@H]2C(=O)Nc2ccc(OC)nc2)[nH]1
Reply: -1.87

Ask: Need cytotoxicity at 70.5 h, item CS(=O)(=O)NC1CCN(Cc2coc(-c3ccc(Cl)cc3)n2)CC1
Reply: 7.7

Ask: Need cytotoxicity at 70.5 h, item CCN(Cc1nc2c(cnn2C)c(=O)[nH]1)Cc1cccs1
Reply: -7.33

Ask: Need cytotoxicity at 70.5 h, item Cn1c(N)nnc1SCc1cc(Br)ccc1Cl
Reply: -10.9

* * *

# Assay name: Human HepG2 cell viability assay in 384 well format
# Format: toxicity, cell-based
# Set-up: dose 125 nL, time 70.5 hour; concentration not given beside the values
# Condition label: HepG2 cells, read-out: Inhibition
Observable: cytotoxicity at 70.5 h (%)
Write it as a number; the unit % goes unstated.

Past entries and their recorded results:
[
  {
    "Compound": "CCOc1ncc(NC(=O)c2ccccn2)c(OCC)n1",
    "Observable": "cytotoxicity at 70.5 h",
    "Data value": -13.3
  },
  {
    "Compound": "Cc1nc(CN2CCC(C(=O)N(C)C3CCC(C)CC3)CC2)cs1 (stereo not drawn)",
    "Observable": "cytotoxicity at 70.5 h",
    "Data value": -3.95
  },
  {
    "Compound": "O=C(c1cc2ccccc2c(=O)[nH]1)N1CCN(CCO)CC1",
    "Observable": "cytotoxicity at 70.5 h",
    "Data value": -4.06
  },
  {
    "Compound": "CC(C)(C)c1nc(NS(=O)(=O)c2ccccc2F)no1",
    "Observable": "cytotoxicity at 70.5 h",
    "Data value": -18.1
  },
  {
    "Compound": "COCc1ccc(CN[C@H]2C[C@@H](Cc3cc(CCO)on3)C2(C)C)o1",
    "Observable": "cytotoxicity at 70.5 h",
    "Data value": -1.61
  }
]

Ask: Need cytotoxicity at 70.5 h, item CS(=O)(=O)NC1CCN(C(=O)c2cc3ccccc3s2)C1 (stereo not drawn)
Reply: -22.9

Ask: Need cytotoxicity at 70.5 h, item CCCc1n[nH]c(C2CN(CCNC3CCCCC3)CCO2)n1 (stereo not drawn)
Reply: 9.34

Ask: Need cytotoxicity at 70.5 h, item Cc1ccc(O)c(C(=O)N2CCC(CN3CCCCCC3)CC2)c1
Reply: -6.42

* * *

# Assay name: Human HepG2 cell viability assay in 384 well format
# Format: toxicity, cell-based
# Set-up: dose 125 nL, time 70.5 hour; concentration not given beside the values
# Condition label: HepG2 cells, read-out: Inhibition
Observable: cytotoxicity at 70.5 h (%)
Write it as a number; the unit % goes unstated.

Past entries and their recorded results:
[
  {
    "Compound": "CCC(NC(=O)c1c(C(=O)O)cnn1C)c1ccc(C)cc1C (stereo unspecified)",
    "Result unit": "%",
    "cytotoxicity at 70.5 h": -3.68
  },
  {
    "Compound": "CCN1CC2(CC1=O)CN(Cc1ccco1)CCN(C(=O)C(C)C)C2 (stereo unspecified)",
    "Result unit": "%",
    "cytotoxicity at 70.5 h": 7.56
  },
  {
    "Compound": "O=C(NCc1cccnc1)N1CCc2ncnc(NC3CC3)c2CC1",
    "Result unit": "%",
    "cytotoxicity at 70.5 h": 11.7
  },
  {
    "Compound": "CC1(C)CCN1C(=O)c1cc(F)cc2[nH]cnc12",
    "Result unit": "%",
    "cytotoxicity at 70.5 h": -9.74
  },
  {
    "Compound": "CC(C)c1noc(CS(=O)(=O)CC(=O)NCC(F)(F)F)n1",
    "Result unit": "%",
    "cytotoxicity at 70.5 h": -6.46
  }
]

# input for lookup
Ask: Need cytotoxicity at 70.5 h, item Cc1cc(C(=O)N2CCc3c(ncn3CCc3ccccc3)C2)on1
Reply: -7.15
